assay: PCB52 and monohydroxylated metabolite tissue levels by GC-MS/MS after 4 h nose-only inhalation; type: in vivo, Sprague–Dawley rats; conditions: male, Sprague-Dawley, rat, lung, inhaled, male, high dose, mean; read-out: PCB or metabolite detected level, Lung
readout_kind: concentration at 4 h (ng/g)
Write the number in ng/g without appending the unit.

INSERT INTO results (chemical_smiles, quantitative_result) VALUES
  ('Clc1ccc(Cl)c(-c2cc(Cl)ccc2Cl)c1', 46);

Now look at this entry.
# input # concentration at 4 h lookup, item Oc1cc(Cl)c(-c2cc(Cl)ccc2Cl)cc1Cl
# output 0.2

* * *

experiment: PCB52 and monohydroxylated metabolite tissue levels by GC-MS/MS after 4 h nose-only inhalation; format: in vivo, Sprague–Dawley rats; settings: male, Sprague-Dawley, rat, cecum, inhaled, male, high dose, mean; read-out: PCB or metabolite detected level, Cecum
Here, each record is paired with measured concentration at 4 h data.
I only need the number, in ng/g, no unit after it.

INSERT INTO assay_data (compound, readout_kind, measurement_unit, quantitative_result) VALUES
  ('Oc1cc(Cl)c(-c2cc(Cl)ccc2Cl)cc1Cl [4-OH-PCB52, 2,2′,5,5′-Tetrachlorobiphenyl-4-ol]', 'concentration at 4 h', 'ng/g', 2);

Now, please, on to the next compound.
# input Consider the compound shown here: Clc1ccc(Cl)c(-c2cc(Cl)ccc2Cl)c1 [PCB52, 2,2′,5,5′-tetrachlorobiphenyl] What is its recorded concentration at 4 h?
# output 2

* * *

test: PCB52 and monohydroxylated metabolite tissue levels by GC-MS/MS after 4 h nose-only inhalation; type: in vivo, Sprague–Dawley rats; conditions: male, Sprague-Dawley, rat, adipose, inhaled, male, high dose, mean; read-out: PCB or metabolite detected level, Adipose
readout_kind: concentration at 4 h (ng/g)
I only need the number, in ng/g, no unit after it.

INSERT INTO results (chemical_smiles, measurement_unit, quantitative_result) VALUES
  ('Clc1ccc(Cl)c(-c2cc(Cl)ccc2Cl)c1', 'ng/g', 8);

Next up:
# input Bench note: what concentration at 4 h did Oc1cc(Cl)c(-c2cc(Cl)ccc2Cl)cc1Cl show?
# output 0.2

* * *

assay: PCB52 and monohydroxylated metabolite tissue levels by GC-MS/MS after 4 h nose-only inhalation; type: in vivo, Sprague–Dawley rats; details: male, Sprague-Dawley, rat, adipose, inhaled, male, low dose, mean; read-out: PCB or metabolite detected level, Adipose
readout_kind: concentration at 4 h (ng/g)
Answer format: numeric, ng/g implied, no suffix.

# input Please report the recorded concentration at 4 h for Clc1ccc(Cl)c(-c2cc(Cl)ccc2Cl)c1 .
# output 6

* * *

Listing: concentration at 4 h of selected molecules
Experiment: PCB52 and monohydroxylated metabolite tissue levels by GC-MS/MS after 4 h nose-only inhalation
Format: in vivo, Sprague–Dawley rats
Conditions: female, Sprague-Dawley, rat, lung, inhaled, female, low dose, mean; read-out: PCB or metabolite detected level, Lung
Description: PCB52 vapor for the animal exposure was generated using a published protocol.[12] Briefly, 450 g of 3 mm diameter glass beads were added to a solution of 1.5 g of PCB52 in dichloromethane. […] PCB52 and metabolite levels, adjusted for tissue wet weight, are reported as the mean ± standard deviation. Differences in PCB52 and metabolite levels from the GC-MS/MS analysis were analyzed with the Tobit regression model because some measurements are below the detection limit. […]
Express your answer in ng/g, writing the number without its unit.

INSERT INTO assay_data (chemical_smiles, quantitative_result) VALUES
  ('Oc1cc(Cl)c(-c2cc(Cl)ccc2Cl)cc1Cl', 0.1);

Now, please, on to the next molecule.
# input Fill in the blank: the reported concentration at 4 h of Clc1ccc(Cl)c(-c2cc(Cl)ccc2Cl)c1 is ____.
# output 41
